For each of the compounds below, state its IC50.
Target: EGFR (Homo sapiens, UniProt P00533)
Sequence (P00533 669-1210): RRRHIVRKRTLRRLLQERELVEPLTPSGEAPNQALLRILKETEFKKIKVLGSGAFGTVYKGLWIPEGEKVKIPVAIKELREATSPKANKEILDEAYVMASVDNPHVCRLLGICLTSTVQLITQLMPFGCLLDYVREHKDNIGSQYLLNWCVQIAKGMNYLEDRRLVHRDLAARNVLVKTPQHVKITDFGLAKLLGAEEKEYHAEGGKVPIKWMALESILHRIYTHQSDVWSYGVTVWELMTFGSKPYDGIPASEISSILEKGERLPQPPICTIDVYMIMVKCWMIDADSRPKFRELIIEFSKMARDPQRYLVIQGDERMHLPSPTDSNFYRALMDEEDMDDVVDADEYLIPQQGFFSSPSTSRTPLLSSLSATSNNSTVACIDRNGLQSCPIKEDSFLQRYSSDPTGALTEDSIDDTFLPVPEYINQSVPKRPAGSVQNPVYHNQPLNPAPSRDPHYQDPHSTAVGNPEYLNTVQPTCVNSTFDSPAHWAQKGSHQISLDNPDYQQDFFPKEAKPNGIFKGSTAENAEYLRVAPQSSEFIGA
Test: EGFR autophosphorylation kinase assay (DELFIA/time-resolved fluorometry)
// note: answer is a bare numeric in µM

Query :: Consider the compound NC(=S)N1N=C(c2ccc3c(c2)OCCO3)CC1c1ccc(I)cc1 (centres unmarked) and give its measured IC50.
Result :: 84.3

Query :: Same question, NC(=S)N1N=C(c2ccc3c(c2)OCCO3)CC1c1cccc(Br)c1 (centres unmarked) this time
Result :: 8.63

Query :: For NC(=S)N1N=C(c2ccc3c(c2)OCCO3)CC1c1cccc2ccccc12 (centres unmarked) then?
Result :: 2.94

Query :: Now consider NC(=S)N1N=C(c2ccc3c(c2)OCCO3)CC1c1ccco1 (centres unmarked) .
Result :: 197

Query :: Would you mind doing NC(=S)N1N=C(c2ccc3c(c2)OCCO3)CC1c1ccccc1F (centres unmarked) as well?
Result :: 59.3

----------
Molecular target: FAK (Homo sapiens, UniProt Q05397)
Construct: human-recombinant full-length FAK
Sequence (Q05397 whole entry): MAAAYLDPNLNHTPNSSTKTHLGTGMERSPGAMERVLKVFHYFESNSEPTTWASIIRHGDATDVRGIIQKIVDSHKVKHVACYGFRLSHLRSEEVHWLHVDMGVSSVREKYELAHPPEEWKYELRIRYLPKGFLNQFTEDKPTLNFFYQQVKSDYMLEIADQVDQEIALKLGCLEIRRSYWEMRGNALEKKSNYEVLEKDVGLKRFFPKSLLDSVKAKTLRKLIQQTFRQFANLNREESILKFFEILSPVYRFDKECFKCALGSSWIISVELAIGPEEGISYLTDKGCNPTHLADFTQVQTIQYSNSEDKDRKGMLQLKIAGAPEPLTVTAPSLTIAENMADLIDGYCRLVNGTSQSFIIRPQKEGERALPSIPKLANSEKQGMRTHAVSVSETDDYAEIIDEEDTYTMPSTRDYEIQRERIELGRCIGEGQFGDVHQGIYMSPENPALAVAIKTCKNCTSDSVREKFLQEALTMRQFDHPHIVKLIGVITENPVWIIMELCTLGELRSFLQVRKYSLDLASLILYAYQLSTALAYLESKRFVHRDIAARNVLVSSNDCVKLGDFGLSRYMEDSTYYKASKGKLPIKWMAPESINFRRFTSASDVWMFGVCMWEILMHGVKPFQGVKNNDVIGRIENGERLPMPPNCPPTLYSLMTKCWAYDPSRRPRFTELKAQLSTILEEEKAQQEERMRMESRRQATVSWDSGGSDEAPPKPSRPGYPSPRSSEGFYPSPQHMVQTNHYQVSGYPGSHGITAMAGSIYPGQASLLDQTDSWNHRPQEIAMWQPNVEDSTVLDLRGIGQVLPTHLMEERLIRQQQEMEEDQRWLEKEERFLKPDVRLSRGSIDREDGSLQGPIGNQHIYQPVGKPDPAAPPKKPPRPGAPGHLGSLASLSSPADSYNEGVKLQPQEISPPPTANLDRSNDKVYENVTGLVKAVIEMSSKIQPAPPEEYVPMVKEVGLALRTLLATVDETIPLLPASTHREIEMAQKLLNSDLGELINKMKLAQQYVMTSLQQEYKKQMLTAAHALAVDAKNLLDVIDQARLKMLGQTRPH
Assay: FAK inhibitory assay (Kinase-Glo)
Friendly reminder: IC50 below 40 µM is 1, at or above is 0.

Query :: API: query returns whether the compound falls strictly under 40 µM in IC50. Query: Cc1ccc(C2CC(c3ccc4c(c3)OCCO4)=NN2C(N)=S)cc1 (stereo not drawn)
Result :: 1

Query :: Moving on to COc1ccc(C2CC(c3ccc4c(c3)OCCO4)=NN2C(N)=S)cc1OC (stereo not drawn)
Result :: 0

Query :: Record: NC(=S)N1N=C(c2ccc3c(c2)OCCO3)CC1c1ccc(C(F)(F)F)cc1 (stereo not drawn)
Result :: 1

Query :: // next record COc1ccc(C2CC(c3ccc4c(c3)OCCO4)=NN2C(N)=S)cc1 (stereo not drawn)
Result :: 0

Query :: Further, for NC(=S)N1N=C(c2ccc3c(c2)OCCO3)CC1c1ccc(Br)cc1 (stereo not drawn) ?
Result :: 1

----------
Biological target: HER-2 (Homo sapiens, UniProt P04626)
Sequence (P04626 676-1245): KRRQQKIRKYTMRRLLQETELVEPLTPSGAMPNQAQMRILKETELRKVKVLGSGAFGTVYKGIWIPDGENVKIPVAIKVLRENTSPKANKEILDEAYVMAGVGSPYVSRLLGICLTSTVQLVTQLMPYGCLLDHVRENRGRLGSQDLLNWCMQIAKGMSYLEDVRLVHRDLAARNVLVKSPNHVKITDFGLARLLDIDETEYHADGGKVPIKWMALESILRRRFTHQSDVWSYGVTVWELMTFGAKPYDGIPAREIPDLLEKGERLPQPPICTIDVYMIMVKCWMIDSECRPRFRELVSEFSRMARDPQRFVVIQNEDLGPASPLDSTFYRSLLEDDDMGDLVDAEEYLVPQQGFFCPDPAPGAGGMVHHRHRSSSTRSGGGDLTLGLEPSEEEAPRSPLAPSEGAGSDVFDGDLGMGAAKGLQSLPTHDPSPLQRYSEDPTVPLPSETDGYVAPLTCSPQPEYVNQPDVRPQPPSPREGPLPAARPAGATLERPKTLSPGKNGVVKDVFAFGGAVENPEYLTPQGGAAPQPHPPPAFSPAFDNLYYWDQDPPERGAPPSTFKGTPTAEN
Experiment: HER-2 autophosphorylation kinase assay (DELFIA/time-resolved fluorometry)
Details: selectivity index, IC50 EGFR/IC50 HER-2
ENDPOINT_LABEL: SI EGFR/HER-2
Answer with a bare number; do not write a unit.

Query :: What SI EGFR/HER-2 value was documented for this compound, NC(=S)N1N=C(c2ccc3c(c2)OCCO3)CC1c1ccc(Br)cc1 (centres unmarked) ?
Result :: 102.5

Query :: Another compound to look at: NC(=S)N1N=C(c2ccc3c(c2)OCCO3)CC1c1c(F)cccc1F (centres unmarked)
Result :: 35.4

Query :: One more compound: NC(=S)N1N=C(c2ccc3c(c2)OCCO3)CC1c1ccccc1F (centres unmarked)
Result :: 0.47

Query :: Cool, now NC(=S)N1N=C(c2ccc3c(c2)OCCO3)CC1c1ccc(OCc2ccccc2)cc1 (centres unmarked)
Result :: 78.5

Query :: Next up: NC(=S)N1N=C(c2ccc3c(c2)OCCO3)CC1c1ccc(I)cc1 (centres unmarked)
Result :: 68.5

----------
The listing below reports pIC50 for molecules tested on VEGFR-2 (Homo sapiens, UniProt P35968).
Sequence (P35968 834-1162 limits assumed, species assumed): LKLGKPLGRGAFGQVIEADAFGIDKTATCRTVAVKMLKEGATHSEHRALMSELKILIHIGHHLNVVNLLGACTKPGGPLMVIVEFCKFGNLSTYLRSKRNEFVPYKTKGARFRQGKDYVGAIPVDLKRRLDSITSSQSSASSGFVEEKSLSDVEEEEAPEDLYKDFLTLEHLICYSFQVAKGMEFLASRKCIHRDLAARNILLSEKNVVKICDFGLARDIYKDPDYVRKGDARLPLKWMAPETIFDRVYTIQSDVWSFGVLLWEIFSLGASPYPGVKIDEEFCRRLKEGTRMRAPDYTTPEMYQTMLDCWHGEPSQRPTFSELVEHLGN
On this scale, pIC50 is minus log10 of a concentration expressed in M (mol/L).

Query :: Which measured pIC50 belongs to COc1ccc(C2CC(c3ccc4c(c3)OCCO4)=NN2C(N)=S)cc1OC (stereo not drawn) [Compound C20] , tested on VEGFR-2 (Homo sapiens, UniProt P35968)?
Result :: 4.74

Query :: Consider next the molecule CSc1ccc(C2CC(c3ccc4c(c3)OCCO4)=NN2C(N)=S)cc1 (stereo not drawn) [Compound C15] in the same way.
Result :: 5.06

Query :: // next record COc1ccc(C2CC(c3ccc4c(c3)OCCO4)=NN2C(N)=S)cc1 (stereo not drawn) [Compound C10]
Result :: 5.16

Query :: Same thing, different molecule: NC(=S)N1N=C(c2ccc3c(c2)OCCO3)CC1c1ccc(C(F)(F)F)cc1 (stereo not drawn) [Compound C17]
Result :: 5.29

Query :: Next entry: NC(=S)N1N=C(c2ccc3c(c2)OCCO3)CC1c1ccc(Br)cc1 (stereo not drawn) [Compound C13]
Result :: 4.59

Query :: Record: Cc1ccc(C2CC(c3ccc4c(c3)OCCO4)=NN2C(N)=S)cc1 (stereo not drawn) [Compound C9]
Result :: 4.94

----------
Target: UniProt:P04626
Test: HER-2 autophosphorylation kinase assay (DELFIA/time-resolved fluorometry)
ENDPOINT_LABEL: log10(IC50) (log10 of the value in µM)
A difference of one corresponds to tenfold IC50; all values are log10 with IC50 in µM.

Query :: Would you mind telling me what log10(IC50) value was observed for NC(=S)N1N=C(c2ccc3c(c2)OCCO3)CC1c1cccc(OCc2ccccc2)c1 (centres unmarked) [Compound C6] ?
Result :: -1.22

Query :: For CSc1ccc(C2CC(c3ccc4c(c3)OCCO4)=NN2C(N)=S)cc1 (centres unmarked) [Compound C15] then?
Result :: -0.54

Query :: Another compound to check: COc1ccc(C2CC(c3ccc4c(c3)OCCO4)=NN2C(N)=S)cc1OC (centres unmarked) [Compound C20]
Result :: -1.52

Query :: Please give the result for NC(=S)N1N=C(c2ccc3c(c2)OCCO3)CC1c1ccc(C(F)(F)F)cc1 (centres unmarked) [Compound C17] too.
Result :: -0.68

Query :: Entry NC(=S)N1N=C(c2ccc3c(c2)OCCO3)CC1c1ccc(Cl)cc1 (centres unmarked) [Compound C12] please
Result :: -0.08

Query :: Repeat with NC(=S)N1N=C(c2ccc3c(c2)OCCO3)CC1c1cccc(Cl)c1 (centres unmarked) [Compound C7]
Result :: 1.80

Query :: Next record, please: NC(=S)N1N=C(c2ccc3c(c2)OCCO3)CC1c1ccc2ccccc2c1 (centres unmarked) [Compound C3]
Result :: 0.86

Query :: Lookup NC(=S)N1N=C(c2ccc3c(c2)OCCO3)CC1c1c(F)cccc1F (centres unmarked) [Compound C18]
Result :: -0.02

Query :: Now consider NC(=S)N1N=C(c2ccc3c(c2)OCCO3)CC1c1ccc(F)cc1 (centres unmarked) [Compound C11] and answer again.
Result :: 0.28

Query :: Please do the same for COc1ccc(C2CC(c3ccc4c(c3)OCCO4)=NN2C(N)=S)cc1 (centres unmarked) [Compound C10] as well.
Result :: -1.10

Query :: Entry NC(=S)N1N=C(c2ccc3c(c2)OCCO3)CC1c1ccccc1 (centres unmarked) [Compound C1] please
Result :: 1.20

----------
Target: HER-3 (Homo sapiens, UniProt P21860)
Sequence (P21860 665-1339): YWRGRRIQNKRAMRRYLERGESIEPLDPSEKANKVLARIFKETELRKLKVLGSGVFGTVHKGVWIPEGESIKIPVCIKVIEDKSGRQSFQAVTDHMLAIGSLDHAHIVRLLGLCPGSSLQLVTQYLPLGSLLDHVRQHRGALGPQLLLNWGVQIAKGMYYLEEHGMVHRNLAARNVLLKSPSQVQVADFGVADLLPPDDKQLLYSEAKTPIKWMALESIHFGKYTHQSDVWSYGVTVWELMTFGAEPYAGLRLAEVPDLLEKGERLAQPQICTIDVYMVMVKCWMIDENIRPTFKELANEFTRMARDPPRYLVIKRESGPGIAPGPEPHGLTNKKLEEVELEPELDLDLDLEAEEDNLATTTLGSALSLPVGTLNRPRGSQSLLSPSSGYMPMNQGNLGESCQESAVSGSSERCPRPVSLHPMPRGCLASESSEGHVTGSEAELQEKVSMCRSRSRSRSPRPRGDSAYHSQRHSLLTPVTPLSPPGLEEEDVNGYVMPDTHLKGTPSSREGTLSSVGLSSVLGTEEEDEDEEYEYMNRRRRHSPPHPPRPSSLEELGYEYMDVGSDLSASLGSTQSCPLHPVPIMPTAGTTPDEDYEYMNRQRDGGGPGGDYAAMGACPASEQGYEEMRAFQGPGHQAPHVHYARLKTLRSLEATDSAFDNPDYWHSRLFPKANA
yes if IC50 is below 8 µM. no if not; exact matches included in no.

Query :: For this compound, is IC50 lower than 8 µM? NC(=S)N1N=C(c2ccc3c(c2)OCCO3)CC1c1ccc(C(F)(F)F)cc1 (stereo not drawn) [Compound C17]
Result :: no

Query :: Item: CSc1ccc(C2CC(c3ccc4c(c3)OCCO4)=NN2C(N)=S)cc1 (stereo not drawn) [Compound C15]
Result :: no

Query :: Also COc1ccc(C2CC(c3ccc4c(c3)OCCO4)=NN2C(N)=S)cc1OC (stereo not drawn) [Compound C20] ?
Result :: yes

Query :: Let us now turn to COc1ccc(C2CC(c3ccc4c(c3)OCCO4)=NN2C(N)=S)cc1 (stereo not drawn) [Compound C10]
Result :: no

Query :: Again, but for NC(=S)N1N=C(c2ccc3c(c2)OCCO3)CC1c1ccc(Br)cc1 (stereo not drawn) [Compound C13]
Result :: yes

Query :: Same question for Cc1ccc(C2CC(c3ccc4c(c3)OCCO4)=NN2C(N)=S)cc1 (stereo not drawn) [Compound C9] please.
Result :: yes

----------
Target: HER-2 (Homo sapiens, UniProt P04626)
Assay: HER-2 autophosphorylation kinase assay (DELFIA/time-resolved fluorometry)
Details: selectivity index, IC50 EGFR/IC50 HER-2
We'd kindly ask you to apply these SI EGFR/HER-2 classes: low end = under 1, middle = from 1 up to 90, high end = 90 and over

Query :: Exercise: read the entry NC(=S)N1N=C(c2ccc3c(c2)OCCO3)CC1c1cccc(Br)c1 (stereo not drawn) and state which class it falls under.
Result :: middle

Query :: Follow-up item: NC(=S)N1N=C(c2ccc3c(c2)OCCO3)CC1c1ccc(Cl)cc1 (stereo not drawn)
Result :: middle

Query :: Same again, this time with NC(=S)N1N=C(c2ccc3c(c2)OCCO3)CC1c1cccc2ccccc12 (stereo not drawn)
Result :: middle

Query :: Likewise for COc1cccc(C2CC(c3ccc4c(c3)OCCO4)=NN2C(N)=S)c1 (stereo not drawn) ?
Result :: low end

Query :: Now the same for NC(=S)N1N=C(c2ccc3c(c2)OCCO3)CC1c1ccccc1 (stereo not drawn)
Result :: middle

Query :: Same read-out for COc1ccc(C2CC(c3ccc4c(c3)OCCO4)=NN2C(N)=S)cc1 (stereo not drawn) ?
Result :: high end

Query :: Okay, and Cc1ccc(C2CC(c3ccc4c(c3)OCCO4)=NN2C(N)=S)cc1 (stereo not drawn) ?
Result :: high end

Query :: Then what about the compound CSc1ccc(C2CC(c3ccc4c(c3)OCCO4)=NN2C(N)=S)cc1 (stereo not drawn) ?
Result :: high end

Query :: What do you get for NC(=S)N1N=C(c2ccc3c(c2)OCCO3)CC1c1cccc(Cl)c1 (stereo not drawn) ?
Result :: low end
